This collection of values is drawn from PubChem BioAssay (NCI).

System: M14 melanoma
Measurement Protocol: NCI-60 one-dose screen, 48 h (100 = growth as untreated, 0 = no growth, -100 = all killed)
Reported Conditions: 10 µM unless noted
About 83,000 compounds went through this panel and 20% of them were active in at least one assay; those are over-represented in the sample as a whole.
Record class 1 whenever growth is at 90% or higher; record class 0 when lower.

IN: Hi, just wondering whether O=C(/C=C\c1ccc(OCCCCCC[P+](c2ccccc2)(c2ccccc2)c2ccccc2)cc1)c1ccc2c(c1)OCCO2 shows growth of 90% or higher.
OUT: class 0

IN: Please give the result for COc1cccc(-c2nc3occn3c2-c2ccnc(NCCCNS(=O)(=O)c3cccc(F)c3)n2)c1 too.
OUT: class 0

IN: Please give the result for NNC(=O)/C(=C\c1ccc([N+](=O)[O-])cc1)CC(=O)c1ccc(Cl)c(Cl)c1 too.
OUT: class 0

IN: Please give the result for COc1cc(OC)c(/C=C/C(=O)c2ccc(Nc3ncnc4ccccc34)cc2)c(OC)c1 too.
OUT: class 0

IN: Please give the result for CC(N)C(=O)NNc1n[nH]c(=S)n1N (stereo not drawn) too.
OUT: class 1

IN: Please give the result for C=C1C(=O)O[C@H]2[C@H]1CC/C(CNC(=O)/C=C/c1ccccc1F)=C\CC[C@@]1(C)O[C@@H]21 too.
OUT: class 0

IN: Please give the result for CCCCCN1C=C/C(=C\C(=O)N(C)c2ccc(Br)cc2)c2ccccc21 too.
OUT: class 1

IN: Please give the result for COc1cc(NCCCN(CC(C)C)C2CCCC2)c2ncccc2c1 too.
OUT: class 0

IN: Please give the result for CCN(CC)CCOC(COc1cc(C)cc(C)c1)COc1cc(C)cc(C)c1 too.
OUT: class 0

IN: Please give the result for O=S(=O)(NCCCNc1nccc(-c2c(-c3ccccc3)nc3occn23)n1)c1ccc(Cl)cc1 too.
OUT: class 0

IN: Please give the result for CN1CCN(Cc2ccc(NC(=O)c3cncc(C#Cc4cnccc4C(F)(F)F)c3)cc2C(F)(F)F)CC1 too.
OUT: class 0

IN: Please give the result for CC1CCN(C(=O)OCc2nc3nc(Cl)nc(N4CCOCC4)c3[nH]2)CC1 too.
OUT: class 0

====

Test system: SK-MEL-28 melanoma
Measurement Protocol: NCI-60 one-dose screen, 48 h (100 = growth as untreated, 0 = no growth, -100 = all killed)
Reported Conditions: 10 µM unless noted
This is part of a sample that, as a whole, favours compounds with a hit. Of some 83,000 tested, about 20% had one in any assay. Activity calls are given as the source filed them. The calls were made as follows: active = growth percent below 10; inactive = the rest.
Task for the reader: assign each of the following molecules its reported growth.

IN: Observed growth on SK-MEL-28 melanoma for CO[C@@H]1[C@H](N(C)C(=O)c2ccccc2)C[C@@H]2O[C@]1(C)n1c3ccccc3c3c4c(c5c6ccccc6n2c5c31)C(=O)NC4=O , please.
OUT: 83.1% (inactive)

IN: Please give the result for C#Cc1cccc(NC(=O)Nc2cccc(N=C=S)c2)c1 too.
OUT: 103% [8.25 µM] (inactive)

IN: Please give the result for S=c1[nH]cccc1-c1nnc2n1Nc1nc3ccccc3cc1CS2 too.
OUT: 111% (inactive)

IN: Please give the result for COc1ccc(Cn2nc3c(c2-c2cc(OC)c(OC)c(OC)c2)-c2oncc2CC3)cc1 too.
OUT: 91.1% (inactive)

IN: Please give the result for CCCCCCCC(=O)Nc1nc2[nH]c(CN3CCN(Cc4cccc(I)c4)CC3)c(CN3CCN(Cc4cccc(I)c4)CC3)c2c(=O)[nH]1 too.
OUT: -78.1% (active)

IN: Please give the result for COc1cccc(/C=C2\COc3ccc(-c4ccccc4)cc3C2=O)c1 too.
OUT: -36.5% (active)

IN: Please give the result for COC(=O)C1NC(=S)N(c2ccc(Cl)cc2)C1/C=C/c1ccccc1 (stereo not given) too.
OUT: 118% (inactive)

IN: Please give the result for FC(F)(F)c1cccc(Oc2ccc(Nc3ncnc4ccc(OCCCN5CCOCC5)cc34)cc2Cl)c1 too.
OUT: 21.3% (inactive)

IN: Please give the result for CS(=O)(=O)OCCN(CCOS(C)(=O)=O)c1ccc(/C=N/Nc2ccc([N+](=O)[O-])cc2[N+](=O)[O-])cc1 too.
OUT: 95.7% (inactive)

IN: Please give the result for CC(C)(C)CC(C)(C)Nc1c(-c2ccc3c(c2)OCO3)nc2cnccn12 too.
OUT: 94.3% (inactive)

IN: Please give the result for CC(=O)OCCCCCNc1ccccc1 too.
OUT: 106% (inactive)

IN: Please give the result for O=C(/C=C/c1ccc[nH]1)c1ccc(-n2ccc(C(F)(F)F)n2)cc1 too.
OUT: 103% (inactive)

IN: Please give the result for COc1ccc(C2CC(c3cccc(Nc4ccncc4)c3)=NN2c2ccc(Cl)cc2)cc1 (stereo not given) too.
OUT: -80.7% (active)

IN: Please give the result for O=C(O)CCCCCCCCCCCCCCC(=O)O too.
OUT: 106% (inactive)

IN: Please give the result for CN1CCN(c2c(F)cc(NC3=C(Cl)C(=O)c4ncccc4C3=O)cc2F)CC1 too.
OUT: 69.8% (inactive)

IN: Please give the result for Nc1nc(N)nc(NCc2ccccc2)n1 too.
OUT: 106% (inactive)

IN: Please give the result for COc1ccc(-c2cnc(N)nc2-c2ccc(OC)cc2O)cc1 too.
OUT: 104% (inactive)

IN: Please give the result for Cc1[nH]c(C(=O)Nc2ccccc2OCc2cccc(C(=O)NCCN)c2)c(Cl)c1Cl too.
OUT: 84.3% (inactive)

IN: Please give the result for C[C@H]1[C@H](C)CC[C@]2(CO)CC[C@]3(C)C(=CC[C@@H]4[C@@]5(C)CCCNC(C)(C)[C@@H]5CC[C@]43C)[C@H]12 too.
OUT: -84.9% (active)

IN: Please give the result for COc1ccc(CNCCN2C(=O)c3ccc4c5c(ccc(c35)C2=O)C(=O)N(CCNCc2ccc(OC)cc2)C4=O)cc1 too.
OUT: -96.2% (active)

IN: Please give the result for CC1(c2ccccc2)NC(=O)N(CC(=O)Nc2cccc(I)c2)C1=O (stereo not given) too.
OUT: 93% (inactive)

IN: Please give the result for Cc1cc2nc(-c3ccccc3)c(-c3ccccc3)nc2cc1C too.
OUT: 105% (inactive)

IN: Please give the result for CCCCCCOc1ccc(C(=N)N(CCCC)CCCC)c2ccccc12 too.
OUT: -94.3% (active)

IN: Please give the result for FC(F)(F)c1cccc(Nc2ccccc2)c1 too.
OUT: 102% (inactive)

IN: Please give the result for CC[C@H](CC[C@@H](C)[C@H]1CC[C@H]2[C@@H]3CC=C4C[C@@H](OCCc5nn[nH]n5)CC[C@]4(C)[C@H]3CC[C@]12C)C(C)C too.
OUT: 110% (inactive)

IN: Please give the result for COc1ccc(/C=C(/c2ccccc2)[N+](=O)[O-])cc1 too.
OUT: -17.7% (active)

IN: Please give the result for COc1cc(NCCN(CC(C)C)C2CCCC2)c2ncccc2c1 too.
OUT: 101% (inactive)

IN: Please give the result for COc1ccncc1C#Cc1cncc(C(=O)Nc2ccc(CN3CCN(C)CC3)c(C(F)(F)F)c2)c1 too.
OUT: 18.2% (inactive)

IN: Please give the result for CN1C(=O)N(C)C2NC(N/N=C/c3ccccc3)=NC21 (stereo not given) too.
OUT: 102% (inactive)

IN: Please give the result for Cc1ccc(C2C3CC4CCCCC4N3[C@@]3(C(=O)Nc4cc(Cl)ccc43)C2C(=O)c2nc3ccccc3[nH]2)cc1 (stereo not given in full) too.
OUT: 66.2% (inactive)

IN: Please give the result for Cc1c2c(cc[n+]1Cc1ccc(F)cc1)c1ccc(OCc3cccc(F)c3)cc1n2Cc1cccc(F)c1 too.
OUT: -91% (active)

IN: Please give the result for CC(=O)[C@@H]1CC[C@]2(C(N)=O)CC[C@]3(C)[C@H](CC[C@@H]4[C@@]5(C)CCC(=O)C(C)(C)[C@@H]5CC[C@]43C)[C@@H]12 too.
OUT: 100% (inactive)

IN: Please give the result for COc1cc(C2CC(c3cccc(Nc4ccncc4)c3)=NN2c2ccc(Cl)cc2)cc(OC)c1OC (stereo not given) too.
OUT: -83.2% (active)

IN: Please give the result for CCCCCCN(C)Cc1ccc(OCCOc2ccc(CN(C)CCCCCC)cc2)cc1 too.
OUT: -68.7% (active)

IN: Please give the result for O=C(CN1CCOCC1)Nc1ccc2ncnc(Nc3ccc(Oc4cccc(C(F)(F)F)c4)c(Cl)c3)c2c1 too.
OUT: 77.1% (inactive)
